# TARGET ENTITY: wt human LRRK2, catalytic site (Homo sapiens (Human))
# TEST DETAILS: TR-FRET LanthaScreen Tb Kinase Activity Assay (LRRK2 kinase inhibition)
# CONDITION LABEL: 2 nM wt human LRRK2, 400 nM fluorescein-ERM (LRRKtide) peptide, 38 μM ATP, 120 minutes at room temperature
Listed below: IC50 values for each entry.

SMILES CODE: CNc1nc(Nc2cc(C)cc3c2cnn3C)ncc1C(F)(F)F
RESULT: < 50 nM
--
SMILES CODE: CCNc1nc(Nc2cccc3c2cnn3S(C)(=O)=O)nc2[nH]cc(Cl)c12
RESULT: < 50 nM
--
SMILES CODE: CS(=O)(=O)n1ncc2c(Nc3ncc(C(F)(F)F)c(N[C@H]4CCOC4)n3)cccc21
RESULT: < 50 nM
--
SMILES CODE: CS(=O)(=O)CCn1ncc2c(Nc3ncc(C(F)(F)F)c(NC4CC4)n3)ccc(F)c21
RESULT: < 50 nM

Enquiry: What value of IC50 has been recorded for this entry: `CNc1nc(Nc2ccc3nn(C)cc3c2)ncc1C(F)(F)F`
Return: < 50 nM

Enquiry: Lookup `CNc1nc(Nc2ccc3c4c2cnn4CCCO3)ncc1C(F)(F)F`
Return: < 50 nM

Enquiry: Lookup `CNc1nc(Nc2ccc3c(cnn3C)c2)ncc1C(F)(F)F`
Return: < 50 nM

Enquiry: Lookup `CNc1nc(Nc2cc(F)cc3[nH]ncc23)ncc1C(F)(F)F`
Return: < 50 nM

Enquiry: Lookup `CNc1nc(Nc2cc(C)cc3[nH]ncc23)ncc1C(F)(F)F`
Return: < 50 nM

Enquiry: Lookup `CNc1nc(Nc2c(C)[nH]c3c(C#N)cccc23)ncc1C(F)(F)F`
Return: 50 to 200 nM

Enquiry: Lookup `CNc1nc(Nc2ncn3ccccc23)ncc1C(F)(F)F`
Return: ≥ 200 nM

Enquiry: Lookup `CNc1nc(Nc2ccc(OC)c3nn(C)cc23)ncc1C(F)(F)F`
Return: < 50 nM

Enquiry: Lookup `CCNc1nc(Nc2cccc3c2cnn3C(C)(C)C#N)nc2[nH]cc(Cl)c12`
Return: < 50 nM

----------
# TARGET ENTITY: wt human LRRK2, catalytic site (Homo sapiens (Human), UniProt Q5S007)
# Sequence (Q5S007 1879-2138): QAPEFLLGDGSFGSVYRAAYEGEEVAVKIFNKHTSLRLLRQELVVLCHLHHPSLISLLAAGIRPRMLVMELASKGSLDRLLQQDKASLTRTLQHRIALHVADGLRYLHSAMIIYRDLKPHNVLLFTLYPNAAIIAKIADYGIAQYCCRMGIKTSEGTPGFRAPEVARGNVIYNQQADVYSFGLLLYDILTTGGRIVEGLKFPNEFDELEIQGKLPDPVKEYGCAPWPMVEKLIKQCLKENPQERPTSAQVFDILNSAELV
# TEST DETAILS: TR-FRET LanthaScreen Tb Kinase Activity Assay (LRRK2 kinase inhibition)
# CONDITION LABEL: 2 nM wt human LRRK2, 400 nM fluorescein-ERM (LRRKtide) peptide, 38 μM ATP, 120 minutes at room temperature
pIC50: −log10 of the molar value.
Listed below: pIC50 values for each entry.

SMILES CODE: CNc1nc(Nc2cc(CCC(=O)N3CCOCC3)cc3c2cnn3C)ncc1C(F)(F)F
pIC50: 6.70 to 7.30
//
SMILES CODE: CNc1nc(Nc2c(C)n(C)c3ccccc23)ncc1C(F)(F)F
pIC50: 6.70 to 7.30
//
SMILES CODE: FC(F)(F)c1cnc(Nc2cccc3c2cnn3C2CC2)nc1NC1CC1
pIC50: > 7.30
//
SMILES CODE: CNc1nc(Nc2ccc3cnccn23)ncc1C(F)(F)F
pIC50: ≤ 6.70
//
SMILES CODE: CC(C)(O)Cn1ncc2c(Nc3ncc(C(F)(F)F)c(NC4CC4)n3)ccnc21
pIC50: > 7.30
//
SMILES CODE: CCS(=O)(=O)n1ncc2c(Nc3ncc(C(F)(F)F)c(NC4CC4)n3)cccc21
pIC50: > 7.30
//
SMILES CODE: FC(F)(F)c1cnc(Nc2cccc3c2cnn3CCN2CCOCC2)nc1NC1CC1
pIC50: > 7.30
//
SMILES CODE: CNc1nc(Nc2cccc3c2cnn3C(C)(C)C#N)ncc1C(F)(F)F
pIC50: > 7.30

Enquiry: What value of pIC50 has been recorded for this entry: `CNc1nc(Nc2cc3c(cnn3C)cc2C)ncc1C(F)(F)F`
Return: > 7.30

----------
# TARGET ENTITY: wt human LRRK2, catalytic site (Homo sapiens (Human))
# TEST DETAILS: TR-FRET LanthaScreen Tb Kinase Activity Assay (LRRK2 kinase inhibition)
# CONDITION LABEL: 2 nM wt human LRRK2, 400 nM fluorescein-ERM (LRRKtide) peptide, 38 μM ATP, 120 minutes at room temperature
pIC50: −log10 of the molar value.
MEASUREMENT TYPE: pIC50

SMILES CODE: COCCS(=O)(=O)n1ncc2c(Nc3ncc(C(F)(F)F)c(NC4CC4)n3)cccc21
TARGET ENTITY: wt human LRRK2, catalytic site (Homo sapiens (Human))
MEASUREMENT TYPE: pIC50
RESULT: > 7.30

Enquiry: What value of pIC50 has been recorded for this entry: `CNc1nc(Nc2ccc(C(F)(F)F)c3c2cnn3CC#N)ncc1C(F)(F)F`
Return: > 7.30

Enquiry: Lookup `CNc1nc(Nc2cccc3c2cnn3CCC(=O)N2CCOCC2)ncc1C(F)(F)F`
Return: > 7.30

Enquiry: Lookup `CC(C)n1ncc2c(Nc3ncc(C(F)(F)F)c(NC4CC4)n3)cccc21`
Return: > 7.30

Enquiry: Lookup `CNc1nc(Nc2cnn3ccc(C#N)cc23)ncc1C(F)(F)F`
Return: > 7.30

----------
# TARGET ENTITY: wt human LRRK2, catalytic site (Homo sapiens (Human))
# TEST DETAILS: TR-FRET LanthaScreen Tb Kinase Activity Assay (LRRK2 kinase inhibition)
# CONDITION LABEL: 2 nM wt human LRRK2, 400 nM fluorescein-ERM (LRRKtide) peptide, 38 μM ATP, 120 minutes at room temperature
MEASUREMENT TYPE: IC50

Past entries and their recorded results:
SMILES CODE: CNc1nc(Nc2ccc(C3=CCN(C)CC3)c3c2cnn3C)ncc1C(F)(F)F
IC50: < 50 nM
//
SMILES CODE: CNc1nc(Nc2ccc(C3CCN(C)CC3)c3c2cnn3C)ncc1C(F)(F)F
IC50: < 50 nM
//
SMILES CODE: CNc1nc(Nc2cc(F)cc3c2cnn3CC#N)ncc1C(F)(F)F
IC50: < 50 nM
//
SMILES CODE: CNc1nc(Nc2ccnc3ccnn23)ncc1C(F)(F)F
IC50: ≥ 200 nM

# next compound below
Enquiry: What value of IC50 has been recorded for this entry: `CNc1nc(Nc2ccc(C3CCN(C)CC3)c3c2cnn3CC#N)ncc1C(F)(F)F`
Return: < 50 nM

----------
# TARGET ENTITY: wt human LRRK2, catalytic site (Homo sapiens (Human), UniProt Q5S007)
# TEST DETAILS: TR-FRET LanthaScreen Tb Kinase Activity Assay (LRRK2 kinase inhibition)
# CONDITION LABEL: 2 nM wt human LRRK2, 400 nM fluorescein-ERM (LRRKtide) peptide, 38 μM ATP, 120 minutes at room temperature
Listed below: IC50 values for each entry.

Past entries and their recorded results:
COMPOUND: CNc1nc(Nc2ccc3c(C#N)n[nH]c3c2)ncc1C(F)(F)F [Example 8]
TARGET ENTITY: wt human LRRK2, catalytic site (Homo sapiens (Human), UniProt Q5S007)
IC50: ≥ 200 nM
--
COMPOUND: CCNc1nc(Nc2cccc3c2cnn3CC(C)(C)O)ncc1C(F)(F)F [Example 164]
TARGET ENTITY: wt human LRRK2, catalytic site (Homo sapiens (Human), UniProt Q5S007)
IC50: < 50 nM

Enquiry: API: value(readout=IC50, system=wt human LRRK2, catalytic site (Homo sapiens (Human), UniProt Q5S007)) for record CNc1nc(Nc2c(C)ccc3c2cnn3C)ncc1C(F)(F)F [Example 36]
Return: 50 to 200 nM

Enquiry: Lookup CNc1nc(Nc2cccc3c2cnn3CC(C)(C)O)nc2[nH]cnc12 [Example 184]
Return: < 50 nM

Enquiry: Lookup Cc1n[nH]c2nc(Nc3cccc4c3cnn4CCS(C)(=O)=O)nc(NC3CC3)c12 [Example 182]
Return: < 50 nM

Enquiry: Lookup CNc1nc(Nc2ccc3cn(C)nc3c2)ncc1C(F)(F)F [Example 17]
Return: < 50 nM

Enquiry: Lookup CNc1nc(Nc2c(C)nn3ccccc23)ncc1C(F)(F)F [Example 62]
Return: 50 to 200 nM

Enquiry: Lookup CNc1nc(Nc2cc3nn(C)cc3cc2C)ncc1C(F)(F)F [Example 18]
Return: 50 to 200 nM

Enquiry: Lookup CC1(Nc2nc(Nc3cccc4c3cnn4CC#N)ncc2C(F)(F)F)CC1 [Example 105]
Return: < 50 nM

Enquiry: Lookup C[C@]1(n2ncc3c(Nc4ncc(C(F)(F)F)c(NC5CC5)n4)cccc32)CCOC1=O [Example 167]
Return: < 50 nM

Enquiry: Lookup CNc1nc(Nc2cccc3cnn(C)c23)ncc1C(F)(F)F [Example 76]
Return: ≥ 200 nM

Enquiry: Lookup N#CCn1ncc2c(Nc3ncc(C(F)(F)F)c(NC4CC(F)(F)C4)n3)cccc21 [Example 96]
Return: < 50 nM

Enquiry: Lookup CNc1nc(Nc2cc(CCC(=O)N3CCOCC3)cc3[nH]ncc23)ncc1C(F)(F)F [Example 53]
Return: 50 to 200 nM

Enquiry: Lookup CS(=O)(=O)CCn1ncc2c(Nc3ncc(C(F)(F)F)c(N[C@H]4C[C@H]4F)n3)cccc21 [Example 198]
Return: < 50 nM

Origin of the recorded values: patent US20240174647A1
